melting point values for the compounds below.

Example cases with answers are listed next.
[[record]]
compound = "NC(=O)c1cc(NCc2ccccc2)c([N+](=O)[O-])cc1[N+](=O)[O-]"
result = "143 to 146 °C"

[[record]]
compound = "CS(=O)(=O)NCc1cccc(-c2nc(=O)c3ccccc3s2)n1"
result = "188 to 190 °C"

[[record]]
compound = "Cn1cc(-c2cnc3c(c2)N(Cc2cc(Cl)ccc2C(F)(F)F)CCN3)cn1"
result = "156 °C"

[[record]]
compound = "COC(=O)c1ncccc1C(=O)c1ccc(-n2ccnc2)cc1"
result = "150 to 157 °C"

[[record]]
compound = "COC1=C(OC)C(=O)C(CCCCCCCCCCCCCCCC(=O)O)=C(C)C1=O"
result = "70 to 71 °C"


I would be grateful if you could share the reported melting point for CCCCN(CCCC)c1ccc(C=CC2=C(OC)C(=CC=CC3=C(C#N)C(=C(C#N)C#N)OC3(C)C(F)(F)F)CC(C)(C)C2)c(OC)c1 (stereo not given) .
141 to 151 °C

I would be grateful if you could share the reported melting point for O=C(O)C1=CCCCC1C(=O)O (stereo not given) .
201 to 203 °C

I would be grateful if you could share the reported melting point for `COc1ccc(C(=O)c2ccccc2N)cn1` .
60 to 62 °C

I would be grateful if you could share the reported melting point for `CNc1cc(F)c(C=O)cc1F` .
133 to 138 °C

I would be grateful if you could share the reported melting point for Cc1cc(Cn2cnc3c2CC(C(=O)O)N(C(=O)C(c2ccccc2)c2ccccc2)C3)ccc1N(C)C (stereo not given) .
72 to 75 °C
